# Subject of test: Amyloid-beta precursor protein (Homo sapiens, UniProt P05067)
# Sequence (P05067 whole entry, the tested form may be a part): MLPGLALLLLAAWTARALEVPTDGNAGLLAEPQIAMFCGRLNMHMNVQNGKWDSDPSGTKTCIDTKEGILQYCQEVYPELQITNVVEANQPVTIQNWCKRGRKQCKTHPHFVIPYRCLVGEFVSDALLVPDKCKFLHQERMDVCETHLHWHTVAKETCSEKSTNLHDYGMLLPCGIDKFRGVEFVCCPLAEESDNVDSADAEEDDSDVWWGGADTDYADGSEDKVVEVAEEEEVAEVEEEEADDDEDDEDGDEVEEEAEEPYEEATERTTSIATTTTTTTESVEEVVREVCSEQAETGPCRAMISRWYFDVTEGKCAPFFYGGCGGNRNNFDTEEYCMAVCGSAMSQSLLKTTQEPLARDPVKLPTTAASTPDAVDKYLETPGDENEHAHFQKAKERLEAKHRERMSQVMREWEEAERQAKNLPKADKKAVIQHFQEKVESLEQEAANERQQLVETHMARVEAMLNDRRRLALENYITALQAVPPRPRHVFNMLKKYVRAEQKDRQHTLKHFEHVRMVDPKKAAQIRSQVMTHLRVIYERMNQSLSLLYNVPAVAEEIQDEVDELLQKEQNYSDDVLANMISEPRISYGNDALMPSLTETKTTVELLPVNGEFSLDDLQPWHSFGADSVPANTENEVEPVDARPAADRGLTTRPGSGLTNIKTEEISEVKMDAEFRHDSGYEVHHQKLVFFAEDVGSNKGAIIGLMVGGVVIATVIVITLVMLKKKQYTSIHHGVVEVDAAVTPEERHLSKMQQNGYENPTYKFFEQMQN
# Assay details: Modulation of human wild-type APP695 expressed in SH-SY5Y cells assessed as inhibition of amyloid beta (1 to 40 residues) production measured after 24 hrs
Quantity name: IC50 (µM)

Please review the following examples before continuing.
1) Oc1c(CN2CCCC2)cc(Nc2ccnc3cc(Cl)ccc23)cc1CN1CCCC1    5.1
2) CCN(CC)Cc1cc(NC(=O)CN2CCCCC2)cc(Nc2ccnc3cc(Cl)ccc23)c1    1.5
3) CN(C)Cc1ccccc1Nc1cc(C(=O)NCCN2CCCCC2)cc(C(=O)NCCN2CCCCC2)c1    8.2

1 = CCN(CC)Cc1cc(Nc2ccnc3cc(Cl)ccc23)ccc1O
2 = c1ccc(Nc2cc(CNCCN3CCCCC3)cc(CNCCN3CCCCC3)c2)c(CN2CCOCC2)c1
3 = CN1CCN(c2cc(Nc3ccnc4cc(Cl)ccc34)cc(N3CCN(C)CC3)c2)CC1
Q: Task field, ranking: reported IC50, descending order. Ranked list of labels, please, in the requested order.
A: 2, 1, 3
(2: 6.6 µM, 1: 4 µM, 3: 2.3 µM)
